Each entry below carries its recorded growth.
Test system: COLO 205 colon
Assay: NCI-60 one-dose screen, 48 h (100 = growth as untreated, 0 = no growth, -100 = all killed)
Settings: 10 µM unless noted
This is part of a sample that, as a whole, favours compounds with a hit. Of some 83,000 tested, about 20% had one in any assay.
Kindly answer with a numeric value in %, unit omitted.

CCCCCCCC[C@@H](O)CC(=O)N[C@@H](CC(N)=O)C(=O)N[C@@H](CCC(N)=O)C(=O)N[C@@H](CC(=O)c1cc(C)cc(O)c1C(=O)c1c(O)cccc1O)CC(C)C    13.5
NC1N=C(SCC(=O)N2CCN(c3cc4c(cc3F)c(=O)c(C(=O)O)cn4C3CC3)CC2)NC(=O)/C1=C/c1ccc(Cl)cc1 (centres undefined)    115

Request: Item CN1C(=O)N(C)C2C1NN=c1s/c(=C\C=C\c3ccccc3)c(=O)n12 (centres undefined) has what recorded growth?
Result: 42.1

Request: Similarly, `COc1ccc(C(=O)c2cc(OC)c3c(c2)OCO3)cc1O` ?
Result: 84.9

Request: Similarly, `O=C(NCCCNc1nccc(-n2ccc3cccnc32)n1)c1c(F)cccc1F` ?
Result: 113
